The reported measurements were obtained from patent US8906904B2.

- Procedure text: Assessment of solubility (McIlvaine buffers, 24 h shake, UPLC-UV)
- Type: physicochemical
- Experimental conditions: pH 2.2, aqueous buffer, kinetic from dmso stock
Known solubility at 24 h of a selection of molecules
Kindly provide the numeric value in µg/mL only, without the unit symbol.

Answered examples (3):
Molecule | solubility at 24 h / µg/mL
COc1c(C(=O)O)cnn1-c1cccc(-c2cccc(C)c2OCc2ccc3c(c2C)CCN([C@H]2CCCOC2)C3)n1 | 130
Cc1cccc(-c2cccc(-n3ncc(C(=O)O)c3OCC(C)C)n2)c1OCc1ccc2c(c1C)CCN(C1CCOCC1)C2 | 110
CCOc1c(C(=O)O)cnn1-c1cccc(-c2cccc(C)c2OCc2ccc3c(c2C)CCN(CC2CCOC(C)(C)C2)C3)n1 (stereo not shown) | 110

The record that follows has no solubility at 24 h shown yet.
Enquiry: # solubility at 24 h lookup, item "COc1c(C(=O)O)cnn1-c1cccc(-c2cccc(C)c2OCc2ccc3c(c2F)CCN(C[C@H]2COCCO2)C3)n1"
Return: 120
